Reference source for all entries: patent US20260069689A1

measuredTarget: T1, SARS-CoV2 Spike ecto foldon Trimer expressed with a C-terminal myc-myc-hexahistidine (SARS-CoV-2, UniProt P0DTC2 14-1213)
T1 construct: extracellular domain
testSummary: SPR Biacore, mAb captured by anti-hFc, 25C
resultType: t½ (min)
Answers are plain numbers, in min.

Solved entries (count: 4):
binder	t½, min
mAb15162 (antibody, V domains shown) VH: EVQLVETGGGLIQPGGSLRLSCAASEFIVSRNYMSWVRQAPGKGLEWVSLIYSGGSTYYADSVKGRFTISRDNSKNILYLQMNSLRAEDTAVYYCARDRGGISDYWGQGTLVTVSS VL: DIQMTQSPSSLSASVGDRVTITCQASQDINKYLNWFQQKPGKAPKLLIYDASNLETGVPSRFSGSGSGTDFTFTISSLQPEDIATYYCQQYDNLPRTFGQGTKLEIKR	170
mAb14281 (antibody, V domains shown) VH: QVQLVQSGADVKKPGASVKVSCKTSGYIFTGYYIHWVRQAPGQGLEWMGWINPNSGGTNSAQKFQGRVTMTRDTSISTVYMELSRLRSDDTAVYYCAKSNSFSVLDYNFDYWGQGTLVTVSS VL: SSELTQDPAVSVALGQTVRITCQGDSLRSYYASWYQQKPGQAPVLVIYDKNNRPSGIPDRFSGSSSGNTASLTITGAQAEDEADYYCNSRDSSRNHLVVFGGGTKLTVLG	143
mAb14289 (antibody, V domains shown) VH: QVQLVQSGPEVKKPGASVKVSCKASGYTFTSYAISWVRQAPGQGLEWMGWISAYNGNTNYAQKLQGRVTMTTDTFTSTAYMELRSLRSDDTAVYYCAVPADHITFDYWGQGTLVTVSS VL: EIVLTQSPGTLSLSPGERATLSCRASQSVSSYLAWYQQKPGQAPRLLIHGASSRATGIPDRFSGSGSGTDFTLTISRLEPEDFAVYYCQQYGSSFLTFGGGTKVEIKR	182
mAb14283 (antibody, V domains shown) VH: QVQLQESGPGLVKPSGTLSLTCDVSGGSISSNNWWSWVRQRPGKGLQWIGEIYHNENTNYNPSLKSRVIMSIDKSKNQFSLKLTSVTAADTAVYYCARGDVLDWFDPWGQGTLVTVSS VL: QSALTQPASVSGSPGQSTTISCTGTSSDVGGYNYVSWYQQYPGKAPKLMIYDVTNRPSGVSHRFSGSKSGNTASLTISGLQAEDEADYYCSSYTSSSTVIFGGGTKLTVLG	133

Looking for the measured t½ of mAb15164 (antibody, V domains shown) VH: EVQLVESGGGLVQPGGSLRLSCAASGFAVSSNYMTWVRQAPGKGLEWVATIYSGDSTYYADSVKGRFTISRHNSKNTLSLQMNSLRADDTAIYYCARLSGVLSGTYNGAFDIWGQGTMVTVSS VL: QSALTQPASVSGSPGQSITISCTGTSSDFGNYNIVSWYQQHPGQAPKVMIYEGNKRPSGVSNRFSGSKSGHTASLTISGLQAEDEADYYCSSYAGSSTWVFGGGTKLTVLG , can you help?
448
